Reported melting point is given for each of the following compounds.
Counter-ions that a name gives are not always drawn.
quantityName: melting point

[[record]]
compound = "CC(C)(C)OC(=O)N1CCC[C@H]1CNc1ccc2ncc(I)n2n1"
endpointvalue = "138 to 139 °C"

[[record]]
compound = "COc1cnccc1-c1cnc2ccc(N3CCCN(C(=O)OC(C)(C)C)CC3)nn12"
endpointvalue = "115 to 116 °C"

[[record]]
compound = "CC(C)NC(=O)N1CCN(c2ccc3ncc(-c4ccccc4)n3n2)CC1 (as salt: hydrochloride)"
endpointvalue = "217 to 218 °C (dec.)"

[[record]]
compound = "CCCCNc1ccc2ncc(-c3ccc(-c4noc(=O)[nH]4)cc3)n2n1"
endpointvalue = "253 to 254 °C (dec.)"

[[record]]
compound = "CC(C)OC(=O)N1CCN(c2ccc3ncc(-c4ccccc4)n3n2)CC1 (as salt: hydrochloride)"
endpointvalue = "232 to 233 °C (dec.)"

[[record]]
compound = "CC(C)(C)NC(=O)N1CCN(c2ccc3ncc(-c4ccccc4)n3n2)CC1 (as salt: hydrochloride)"
endpointvalue = "210 to 211 °C (dec.)"

[[record]]
compound = "CC(C)OC(=O)N1CCN(c2ccc3ncc(Br)n3n2)CC1"
endpointvalue = "123 to 124 °C"

[[record]]
compound = "CC(C)(C)C(=O)N1CCN(c2ccc3ncc(-c4ccccc4)n3n2)CC1 (as salt: hydrochloride)"
endpointvalue = "277 to 278 °C (dec.)"

